Data origin: ChEMBL document CHEMBL1961873

target: Insulin-like growth factor 1 receptor (Homo sapiens) (UniProt P08069); conditions: at 1 µM
Sequence (P08069 31-736 limits assumed): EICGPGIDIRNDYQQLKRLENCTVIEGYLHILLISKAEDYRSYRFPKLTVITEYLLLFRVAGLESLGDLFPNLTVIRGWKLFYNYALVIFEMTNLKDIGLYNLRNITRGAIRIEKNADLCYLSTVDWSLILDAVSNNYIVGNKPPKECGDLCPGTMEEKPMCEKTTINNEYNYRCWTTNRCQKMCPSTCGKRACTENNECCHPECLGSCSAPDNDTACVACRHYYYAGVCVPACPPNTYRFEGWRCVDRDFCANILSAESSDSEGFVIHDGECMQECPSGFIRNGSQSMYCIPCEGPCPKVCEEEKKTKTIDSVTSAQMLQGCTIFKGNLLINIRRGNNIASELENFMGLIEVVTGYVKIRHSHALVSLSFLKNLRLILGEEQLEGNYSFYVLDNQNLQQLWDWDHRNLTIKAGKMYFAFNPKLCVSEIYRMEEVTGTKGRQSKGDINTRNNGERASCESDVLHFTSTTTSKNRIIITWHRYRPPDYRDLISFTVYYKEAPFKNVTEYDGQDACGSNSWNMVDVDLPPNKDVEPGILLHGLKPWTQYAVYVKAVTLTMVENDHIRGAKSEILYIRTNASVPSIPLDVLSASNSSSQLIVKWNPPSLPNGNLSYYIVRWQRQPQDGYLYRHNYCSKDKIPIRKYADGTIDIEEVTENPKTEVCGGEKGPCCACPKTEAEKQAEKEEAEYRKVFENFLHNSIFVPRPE
Sequence (P08069 741-1367 limits assumed): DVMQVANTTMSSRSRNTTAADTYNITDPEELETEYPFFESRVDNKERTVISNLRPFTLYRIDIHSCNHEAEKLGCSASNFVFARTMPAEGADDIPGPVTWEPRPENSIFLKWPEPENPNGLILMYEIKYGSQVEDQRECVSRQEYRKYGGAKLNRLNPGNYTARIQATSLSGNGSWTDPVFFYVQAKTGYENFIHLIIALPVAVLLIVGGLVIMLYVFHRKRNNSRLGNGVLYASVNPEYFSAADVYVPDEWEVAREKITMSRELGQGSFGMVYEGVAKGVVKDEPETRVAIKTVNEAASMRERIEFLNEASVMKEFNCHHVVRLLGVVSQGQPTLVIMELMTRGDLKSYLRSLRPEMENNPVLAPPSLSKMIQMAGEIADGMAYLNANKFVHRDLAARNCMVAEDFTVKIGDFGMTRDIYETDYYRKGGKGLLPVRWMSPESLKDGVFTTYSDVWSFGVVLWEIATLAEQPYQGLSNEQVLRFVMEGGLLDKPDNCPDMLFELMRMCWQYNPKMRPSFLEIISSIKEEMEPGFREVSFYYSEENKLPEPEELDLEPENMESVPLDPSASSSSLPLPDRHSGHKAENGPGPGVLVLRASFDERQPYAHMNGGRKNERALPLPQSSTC
propertyLabel: inhibition (%)
One number for each entry, in %.

Ask | Missing value: inhibition, Insulin-like growth factor 1 receptor (Homo sapiens) (UniProt P08069), entry Nc1nc(-c2ccccn2)c(-c2ccc3ncccc3n2)s1 . Fill in?
Reply | 3.2

Ask | Give the reported inhibition for CCn1c(-c2nonc2N)nc2cnc(Oc3cccc(NC(=O)c4ccc(OCCN5CCOCC5)cc4)c3)cc21 (system: Insulin-like growth factor 1 receptor (Homo sapiens) (UniProt P08069)).
Reply | 1.49

Ask | Form: Entry = COC(=O)Nc1nc2cc(Oc3cccc(NC(=O)Nc4cc(C(F)(F)F)ccc4F)c3)ccc2[nH]1 | System = Insulin-like growth factor 1 receptor (Homo sapiens) (UniProt P08069) | inhibition = ____;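 also: each value is a mean percent inhibition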
Reply | -0.89

Ask | What measured inhibition is associated with NS(=O)(=O)c1ccc(N/N=C2\C(=O)Nc3ccc(C(=O)NCCc4c[nH]cn4)cc32)cc1 on Insulin-like growth factor 1 receptor (Homo sapiens) (UniProt P08069)?
Reply | 17.3

Ask | Notebook entry, Insulin-like growth factor 1 receptor (Homo sapiens) (UniProt P08069) assay: inhibition of CCn1c(-c2nonc2N)nc2c(C#CC(C)(C)O)nc(OC[C@@H](N)c3ccccc3)cc21 = ?
Reply | 1.05

Please supply inhibition for each of the following items, keeping them in order.
1. CCCN1CCC(Oc2cc(Nc3nc(Nc4cccc(F)c4C(N)=O)c4cc[nH]c4n3)c(OC)cc2Cl)CC1
2. Nc1nc(-c2ccc3c(c2)C(=Cc2cc(Br)c(O)c(Br)c2)C(=O)N3)cs1
3. Cc1nn(C)c2cc(N(C)c3ccnc(Nc4cccc(S(N)(=O)=O)c4)n3)ccc12
4. CC1=C(C(=O)Nc2ccc3[nH]ncc3c2)C(c2ccc3ccccc3c2)CC(=O)N1 (configuration not stated)
5. NCc1ccc(-c2nc(-c3ccc(Cl)c(O)c3)c(-c3ccncc3)[nH]2)cc1
6. NC(=O)c1ccc(-c2nc(-c3ccccn3)c(-c3ccc4c(c3)OCO4)[nH]2)cc1

Reply |
91.8
0.82
7.04
6.6
-0.25
2.2

Would you be so kind as to report inhibition for each listed record?
1. CC(=O)Nc1cccc(C#Cc2cncnc2Nc2ccc(OCc3cccc(F)c3)c(Cl)c2)n1
2. Nc1ncnc2occ(-c3ccc(NC(=O)Nc4cc(C(F)(F)F)cc(C(F)(F)F)c4)cc3)c12
3. CCn1c(-c2nonc2N)nc2cncc(C(=O)N3CCNCC3)c21
4. CS(=O)(=O)Nc1ccc(N/C=C2\C(=O)Nc3ccccc32)cc1
5. COc1ccc(COc2ccc(Cc3cnc(N)nc3N)cc2OC)cc1
6. O=C1NC(=O)C(N2CCc3ccccc32)=C1c1ccc(Cl)cc1

Reply |
[-3.59, 7.12, 9.25, 5.77, -0.91, 2.75]

Would you mind listing inhibition for each of the following molecules?
1. N#Cc1c(NC(=O)c2cccc3ccccc23)sc2c1CCCC2
2. COc1cc2ncn(-c3cc(O[C@@H](C)c4ccccc4Cl)c(C(N)=O)s3)c2cc1OC
3. CCn1c(-c2nonc2N)nc2c(N3CCCC3)nccc21
4. NC(=O)c1cccc(Nc2nccc(Nc3cccc4[nH]ncc34)n2)c1
5. COc1ccc2cc(-c3c(-c4ccncc4)nc(-c4ccc([S+](C)[O-])cc4)n3C)ccc2c1 (configuration not stated)

Reply |
2.51
2.3
2.72
15.5
0.1

---

tested on: Epidermal growth factor receptor (Homo sapiens), P00533 [T790M]; details: at 0.1 µM
Sequence (P00533 whole entry T790M): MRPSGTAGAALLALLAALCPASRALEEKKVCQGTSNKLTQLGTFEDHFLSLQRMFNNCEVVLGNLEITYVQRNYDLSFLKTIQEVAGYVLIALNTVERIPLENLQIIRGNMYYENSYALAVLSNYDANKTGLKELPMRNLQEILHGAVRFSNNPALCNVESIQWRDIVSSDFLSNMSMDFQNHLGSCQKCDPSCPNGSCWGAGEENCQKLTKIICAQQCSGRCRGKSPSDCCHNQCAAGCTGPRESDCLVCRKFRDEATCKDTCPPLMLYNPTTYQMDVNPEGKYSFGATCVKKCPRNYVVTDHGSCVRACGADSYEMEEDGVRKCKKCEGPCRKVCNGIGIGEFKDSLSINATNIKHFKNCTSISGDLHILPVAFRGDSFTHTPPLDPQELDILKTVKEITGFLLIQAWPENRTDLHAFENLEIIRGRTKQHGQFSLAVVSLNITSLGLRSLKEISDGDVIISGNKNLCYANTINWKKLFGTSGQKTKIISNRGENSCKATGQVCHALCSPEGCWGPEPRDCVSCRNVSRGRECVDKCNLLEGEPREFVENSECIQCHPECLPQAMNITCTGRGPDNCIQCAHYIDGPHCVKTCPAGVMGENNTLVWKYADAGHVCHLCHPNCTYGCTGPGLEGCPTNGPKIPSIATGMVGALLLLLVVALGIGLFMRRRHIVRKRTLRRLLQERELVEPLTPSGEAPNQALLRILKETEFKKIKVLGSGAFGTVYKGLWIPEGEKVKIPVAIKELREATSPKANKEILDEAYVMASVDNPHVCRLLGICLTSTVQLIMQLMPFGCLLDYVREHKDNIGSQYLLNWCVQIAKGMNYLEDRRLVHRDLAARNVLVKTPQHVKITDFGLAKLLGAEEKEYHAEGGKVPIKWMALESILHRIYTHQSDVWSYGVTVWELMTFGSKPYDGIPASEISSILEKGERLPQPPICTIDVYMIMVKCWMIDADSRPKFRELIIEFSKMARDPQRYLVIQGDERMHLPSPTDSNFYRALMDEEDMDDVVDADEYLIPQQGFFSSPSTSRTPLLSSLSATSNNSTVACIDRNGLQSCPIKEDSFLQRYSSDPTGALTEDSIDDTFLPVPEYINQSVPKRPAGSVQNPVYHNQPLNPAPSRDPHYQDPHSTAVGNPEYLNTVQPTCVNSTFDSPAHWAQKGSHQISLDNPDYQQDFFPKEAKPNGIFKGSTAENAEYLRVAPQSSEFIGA
Please go through the items and note down their inhibition.
Answers are plain numbers, in %.

Here's what some known entries look like.
Ask | Return reported inhibition; argument: Nc1nc(-c2ccc3c(c2)C(=Cc2cc(Br)c(O)c(Br)c2)C(=O)N3)cs1
Reply | -1.77

Ask | Find the recorded inhibition belonging to CC1=C(C(=O)Nc2ccc3[nH]ncc3c2)C(c2ccc(Cl)c(Cl)c2)CC(=O)N1 (centres undefined) and report it.
Reply | 0.19

Ask | Quick one: inhibition for COC(=O)Nc1nc2cc(Oc3cccc(NC(=O)Nc4cc(C(F)(F)F)ccc4F)c3)ccc2[nH]1 ?
Reply | -1.19

Ask | Record request: inhibition value, item COc1cc2ncn(-c3cc(OCc4ccccc4Cl)c(C(N)=O)s3)c2cc1OC
Reply | -1.99

Ask | inhibition for CCn1c(-c2nonc2N)nc2c(C#CC(C)(C)O)nc(OC[C@@H](N)c3ccccc3)cc21 ?
Reply | -1.77

Ask | Suppose we examine the compound CC1=C(C(=O)Nc2ccc3[nH]ncc3c2)C(c2ccc3ccccc3c2)CC(=O)N1 (centres undefined) ; what inhibition value has been reported?
Reply | 1.06

Ask | Item under review: COc1ccc2cc(-c3c(-c4ccncc4)nc(-c4ccc([S+](C)[O-])cc4)n3C)ccc2c1 (centres undefined) . Reported inhibition?
Reply | -0.14

Ask | Entry COc1cc2ncn(-c3cc(O[C@@H](C)c4ccccc4Cl)c(C(N)=O)s3)c2cc1OC has what inhibition?
Reply | 1.35

Ask | // returns reported inhibition for input COc1cc2ncn(-c3cc(OCc4ccccc4C(F)(F)F)c(C(N)=O)s3)c2cc1OC
Reply | 2

Ask | What value of measured inhibition is listed for CS(=O)(=O)CCNCc1ccc(-c2ccc3ncnc(Nc4ccc(OCc5cccc(F)c5)c(C(F)(F)F)c4)c3c2)o1 ?
Reply | 2.44

Look up inhibition for the entries below, preserving their order.
1. COc1cc(C)c(NC(=O)CN(C)C)cc1Nc1nc(Nc2cccc(F)c2C(N)=O)c2cc[nH]c2n1
2. CCn1c(-c2nonc2N)nc2cncc(C(=O)N3CC[C@H](N)C3)c21
3. CCN1CCC(CC(=O)Nc2n[nH]c3nc(-c4cccs4)c(Br)cc23)CC1
4. NC(=O)c1cccc(Nc2nccc(Nc3cccc4[nH]ncc34)n2)c1

Reply |
1: 5.98; 2: 2.65; 3: -1.65; 4: -1.89

---

Assignment: determine reported inhibition for the given compounds.
target: Leucine-rich repeat serine/threonine-protein kinase 2 (Homo sapiens) (UniProt Q5S007); conditions: at 0.1 µM
Sequence (Q5S007 whole entry): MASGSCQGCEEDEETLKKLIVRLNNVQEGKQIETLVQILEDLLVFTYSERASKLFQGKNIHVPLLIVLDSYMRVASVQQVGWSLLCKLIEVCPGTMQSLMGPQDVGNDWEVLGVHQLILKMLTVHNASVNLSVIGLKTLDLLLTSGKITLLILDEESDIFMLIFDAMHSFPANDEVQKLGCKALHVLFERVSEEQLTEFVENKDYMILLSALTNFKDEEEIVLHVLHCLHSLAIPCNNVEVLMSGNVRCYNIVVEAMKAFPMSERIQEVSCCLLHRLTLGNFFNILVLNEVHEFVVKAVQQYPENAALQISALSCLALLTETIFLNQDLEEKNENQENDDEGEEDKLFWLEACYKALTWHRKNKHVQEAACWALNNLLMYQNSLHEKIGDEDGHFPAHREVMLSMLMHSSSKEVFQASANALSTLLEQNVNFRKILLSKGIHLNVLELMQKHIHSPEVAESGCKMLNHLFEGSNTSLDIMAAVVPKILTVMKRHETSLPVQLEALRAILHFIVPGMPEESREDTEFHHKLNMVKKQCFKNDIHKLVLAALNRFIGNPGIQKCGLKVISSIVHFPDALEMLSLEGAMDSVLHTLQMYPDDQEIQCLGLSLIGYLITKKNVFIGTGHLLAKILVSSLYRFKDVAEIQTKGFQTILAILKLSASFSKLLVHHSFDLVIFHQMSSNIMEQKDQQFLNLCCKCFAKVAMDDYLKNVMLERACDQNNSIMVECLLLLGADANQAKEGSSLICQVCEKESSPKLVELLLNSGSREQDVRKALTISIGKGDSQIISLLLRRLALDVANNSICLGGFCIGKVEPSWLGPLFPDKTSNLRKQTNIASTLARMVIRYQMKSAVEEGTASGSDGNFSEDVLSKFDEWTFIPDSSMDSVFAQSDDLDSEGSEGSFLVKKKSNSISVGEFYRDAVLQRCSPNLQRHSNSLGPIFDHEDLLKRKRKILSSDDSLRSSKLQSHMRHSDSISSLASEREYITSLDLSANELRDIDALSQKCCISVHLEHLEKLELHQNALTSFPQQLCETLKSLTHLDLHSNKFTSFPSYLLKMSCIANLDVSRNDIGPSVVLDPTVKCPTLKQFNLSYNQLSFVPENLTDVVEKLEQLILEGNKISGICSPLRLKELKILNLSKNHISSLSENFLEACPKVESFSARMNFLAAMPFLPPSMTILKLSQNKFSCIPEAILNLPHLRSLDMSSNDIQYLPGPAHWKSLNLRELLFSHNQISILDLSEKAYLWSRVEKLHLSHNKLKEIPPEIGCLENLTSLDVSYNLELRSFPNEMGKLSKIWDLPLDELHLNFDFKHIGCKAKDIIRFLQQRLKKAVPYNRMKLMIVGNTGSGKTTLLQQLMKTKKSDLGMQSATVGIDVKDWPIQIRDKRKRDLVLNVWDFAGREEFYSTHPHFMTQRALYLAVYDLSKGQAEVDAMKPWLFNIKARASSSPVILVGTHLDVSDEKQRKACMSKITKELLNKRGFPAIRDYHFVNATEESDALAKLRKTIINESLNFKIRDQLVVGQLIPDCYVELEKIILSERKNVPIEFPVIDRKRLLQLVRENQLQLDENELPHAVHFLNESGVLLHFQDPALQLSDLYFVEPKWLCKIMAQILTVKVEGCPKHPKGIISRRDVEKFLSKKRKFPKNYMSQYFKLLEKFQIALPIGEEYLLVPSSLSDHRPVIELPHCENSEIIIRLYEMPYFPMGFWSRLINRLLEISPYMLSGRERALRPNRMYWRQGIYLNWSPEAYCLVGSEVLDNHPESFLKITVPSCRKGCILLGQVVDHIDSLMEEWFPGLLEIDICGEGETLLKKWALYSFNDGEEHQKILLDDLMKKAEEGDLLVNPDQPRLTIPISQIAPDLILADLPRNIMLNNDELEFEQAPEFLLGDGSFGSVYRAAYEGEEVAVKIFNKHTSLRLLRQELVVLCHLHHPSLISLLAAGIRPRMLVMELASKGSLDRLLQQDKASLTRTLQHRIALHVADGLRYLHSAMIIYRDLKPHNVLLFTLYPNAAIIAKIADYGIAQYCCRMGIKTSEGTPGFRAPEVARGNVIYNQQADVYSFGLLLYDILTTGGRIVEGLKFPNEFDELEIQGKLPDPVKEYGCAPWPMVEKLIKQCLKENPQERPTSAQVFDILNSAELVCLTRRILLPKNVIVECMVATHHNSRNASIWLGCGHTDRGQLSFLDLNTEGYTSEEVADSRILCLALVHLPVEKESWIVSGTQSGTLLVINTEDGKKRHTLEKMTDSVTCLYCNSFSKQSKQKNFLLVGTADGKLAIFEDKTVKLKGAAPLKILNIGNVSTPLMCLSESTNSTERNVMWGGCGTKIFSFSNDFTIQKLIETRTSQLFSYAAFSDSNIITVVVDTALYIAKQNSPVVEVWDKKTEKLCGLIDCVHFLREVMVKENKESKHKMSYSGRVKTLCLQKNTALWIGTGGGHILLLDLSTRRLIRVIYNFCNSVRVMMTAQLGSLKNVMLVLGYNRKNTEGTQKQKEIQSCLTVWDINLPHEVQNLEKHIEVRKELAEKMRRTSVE
Answers are plain numbers, in %.

Ask | Given the entry Fc1cccc(COc2ccc(Nc3ncnc4cc(-c5ccc[nH]5)sc34)cc2Cl)c1 , what inhibition was observed with Leucine-rich repeat serine/threonine-protein kinase 2 (Homo sapiens) (UniProt Q5S007)?
Reply | -4.42

Ask | State its inhibition on Leucine-rich repeat serine/threonine-protein kinase 2 (Homo sapiens) (UniProt Q5S007): CN(C)c1cc2c(Nc3ccc4nc(Cc5ccccc5)[nH]c4c3)ncnc2cn1
Reply | 5.94

Ask | Item: CC(C)=Cc1cccc2c1/C(=N/Nc1ccc(S(N)(=O)=O)cc1)C(=O)N2 Test system: Leucine-rich repeat serine/threonine-protein kinase 2 (Homo sapiens) (UniProt Q5S007) Read-out: inhibition Value: ?
Reply | 14.9

Ask | Fill in the recorded inhibition for this compound, with Leucine-rich repeat serine/threonine-protein kinase 2 (Homo sapiens) (UniProt Q5S007) as test system: COc1ccccc1Nc1ncc(-c2ccccc2)o1
Reply | 4.53

Ask | Form: Entry = COc1cc2c(cc1Nc1nc(N3CCc4ccccc43)c3cc[nH]c3n1)N(C(=O)CN(C)C)CC2 | System = Leucine-rich repeat serine/threonine-protein kinase 2 (Homo sapiens) (UniProt Q5S007) | inhibition = ____;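 also: reported values are averaged percent inhibition of LRRK2 kinase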
Reply | 17.6

Quick request: inhibition for each listed item, please.
1. NS(=O)(=O)c1cccc(-c2ccc3c(NC(=O)C4CC4)n[nH]c3c2)c1
2. [O-][S+]1CCN(Cc2ccc(-c3ccc4ncnc(Nc5ccc(OCc6ccccc6)c(F)c5)c4c3)o2)CC1
3. COc1cc2ncn(-c3cc(OCc4ccccc4C(F)(F)F)c(C(N)=O)s3)c2cc1OC
4. CS(=O)(=O)CCNCc1ccc(-c2ccc3ncnc(Nc4ccc(OCc5ccccc5)c(Cl)c4)c3c2)o1

Reply |
-2.61
2.89
1.63
2.66

---

molecular target: RAC-beta serine/threonine-protein kinase (Homo sapiens); conditions: at 0.1 µM;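 also: reported figure is the mean percent inhibition of AKT2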
Assign inhibition to each entry below.
Answer format: value, then unit.

Consider the reported inhibition for these compounds:
Ask | Name the recorded inhibition for Cc1cc(O)cc(C)c1/C=C/c1cncc(-c2nn[nH]n2)c1 .
Reply | -1.95%

Ask | Quick one: inhibition for Cc1ccc(NC(=O)c2ccnc(N3CCCC3)c2)cc1-c1ccc(C(=O)NCC2CC2)cc1 ?
Reply | -1.45%

Ask | What inhibition value was documented for this compound, Cc1cccc(-c2n[nH]cc2-c2ccc3ncccc3n2)n1 ?
Reply | 0.56%

Ask | I am curious: what inhibition value has been reported for CCCN1CCC=C(c2ccc(Nc3nc(Nc4ccccc4C(N)=O)c4cc[nH]c4n3)c(C)c2)C1 ?
Reply | 1.3%

Ask | I have this compound here, COc1ccccc1Nc1ncc(-c2ccccc2)o1 , and I need its recorded inhibition.
Reply | 0.6%

Ask | Which measured inhibition value corresponds to Nc1ncnc2occ(-c3ccc(NC(=O)Nc4cc(C(F)(F)F)cc(C(F)(F)F)c4)cc3)c12 ?
Reply | 1.95%

Ask | Which measured inhibition value corresponds to CN(C)c1cc2c(Nc3ccc4nc(Cc5ccccc5)[nH]c4c3)ncnc2cn1 ?
Reply | 2.3%

Ask | What does the record list as inhibition for CCn1c(-c2nonc2N)nc2cncc(C(=O)N3CCNCC3)c21 ?
Reply | 2.91%

Each compound below has a reported value. Please supply its inhibition.
1. NC(=O)c1ccc(-c2nc(-c3ccccn3)c(-c3ccc4c(c3)OCO4)[nH]2)cc1
2. CN1CCC(C(=O)Nc2n[nH]c3nnc(-c4ccccc4)cc23)CC1
3. CCn1c(-c2nonc2N)nc2c(C#CC(C)(C)O)nc(CN3CCCC3)cc21
4. O=C1NC(=O)C(N2CCc3ccccc32)=C1c1ccc(Cl)cc1
5. O=C1Nc2ccc(C(=O)c3ccco3)cc2C1=Cc1cc(Cl)c(O)c(Cl)c1
6. CS(=O)(=O)CCNCc1nc(-c2ccc3ncnc(Nc4ccc(F)c(Cl)c4)c3c2)cs1
7. N#Cc1c(NC(=O)c2cccc3ccccc23)sc2c1CCCC2
8. O=C1NC(=O)C(c2ccc(Cl)cc2)=C1Nc1ccc(Cl)c(C(=O)O)c1

Reply |
1. 1.27%
2. 3.48%
3. 10%
4. 1.7%
5. 1.49%
6. 0.07%
7. 1.74%
8. -2.06%

Hey, quick one: what's inhibition for each of these?
1. CC(=O)Nc1cccc(C#Cc2cncnc2Nc2ccc(OCc3cccc(F)c3)c(Cl)c2)n1
2. Fc1cccc(COc2ccc(Nc3ncnc4cc(-c5ccc[nH]5)sc34)cc2Cl)c1
3. Nc1ncnc2occ(-c3ccc(NC(=O)Nc4cccc(C(F)(F)F)c4)cc3)c12
4. O=C1NC(=O)C(c2cccc(Cl)c2)=C1Nc1ccc(O)c(Cl)c1
5. Fc1cccc(COc2ccc(Nc3ncnc4sc(-c5cccs5)cc34)cc2Cl)c1
6. CCn1c(-c2nonc2N)nc2c(N3CCCC3)nccc21

Reply |
1. -1.3%
2. -2.34%
3. 1.75%
4. 0.32%
5. -0.49%
6. -3.12%
